Source listed as the antibiotic and cytotoxicity screens of Wong et al. (2023).

System: HepG2
Assay: cytotoxicity call (relative viability < 0.9)
Details: 10 µM
Screen size: about 39,000 compounds; about 3,300 (8.5%) were called active. The entries come from a sample that favours actives as a whole.
Classes used: active, inactive

1. C[C@@H]1CN([C@H](C)CO)C(=O)c2cc(NC(=O)Nc3ccc(C(F)(F)F)cc3)ccc2O[C@@H]1CN(C)Cc1ccc(Cl)c(Cl)c1 | active
2. C[C@@H]1CN([C@H](C)CO)C(=O)c2cccc(NC(=O)NC3CCCCC3)c2O[C@H]1CN(C)C(=O)Nc1ccc(C(F)(F)F)cc1 | active
3. COc1cccc(NC(=O)N[C@H]2CC[C@@H](CC(=O)N3CCOCC3)O[C@H]2CO)c1 | inactive
4. Cc1ccc(S(=O)(=O)Nc2ccc3c(c2)CC(=O)N([C@@H](C)CO)C[C@H](C)[C@@H](CN(C)S(=O)(=O)c2ccccc2)O3)cc1 | inactive
5. C[C@H](CO)N1C[C@H](C)[C@@H](CN(C)Cc2ccc(Cl)c(Cl)c2)Oc2ccc(NC(=O)Nc3ccc(C(F)(F)F)cc3)cc2C1=O | active
6. C[C@H](CO)N1C[C@H](C)[C@H](CN(C)C(=O)Nc2ccc(C(F)(F)F)cc2)Oc2c(NC(=O)NC3CCCCC3)cccc2C1=O | active
7. C[C@@H]1CN([C@@H](C)CO)C(=O)c2cccc(NC(=O)C3CCCCC3)c2O[C@@H]1CN(C)C(=O)Nc1ccc(C(F)(F)F)cc1 | inactive
8. C[C@H](CO)N1C[C@H](C)[C@@H](CN(C)S(=O)(=O)c2ccc(F)cc2)Oc2c(NC(=O)c3cnccn3)cccc2C1=O | inactive
9. C[C@@H]1CN([C@H](C)CO)C(=O)Cc2cc(NC(=O)CCC(F)(F)F)ccc2O[C@H]1CN(C)S(=O)(=O)c1cccs1 | inactive
10. C[C@H](CO)N1C[C@H](C)[C@H](CN(C)C(=O)Nc2ccc(C(F)(F)F)cc2)Oc2c(NC(=O)C3CCCCC3)cccc2C1=O | active
11. O=c1nc[nH]c2ccccc12 | inactive
12. FC(F)(F)c1ccc(CSc2c[nH]c3ccccc23)cc1 | inactive
13. C[C@@H]1CN([C@H](C)CO)C(=O)c2cc(NC(=O)NC3CCCCC3)ccc2O[C@H]1CN(C)Cc1ccc(C(F)(F)F)cc1 | inactive
14. CC(C)NC(=O)N(C)C[C@H]1Oc2c(NC(=O)C3CCCCC3)cccc2C(=O)N([C@H](C)CO)C[C@@H]1C | inactive
15. O=C(NO)c1ccc(C(=O)N/N=C/[C@H](O)[C@@H](O)[C@H](O)[C@H](O)CO)cc1 | inactive
16. C[C@H]1CN([C@@H](C)CO)C(=O)c2ccccc2-c2ccccc2CO[C@H]1CN(C)C(=O)c1cc(Cl)cc(Cl)c1 | inactive

###

System: HepG2
Experiment: cytotoxicity call (relative viability < 0.9)
Conditions: 10 µM
The whole screen tested about 39,000 compounds, of which about 3,300 (8.5%) were called active. Many of the other results were omitted from the sample, so actives are more common in it than they were.
Classes used: 1 for active, -1 for inactive

1. Cc1noc(C)c1S(=O)(=O)Nc1ccc2c(c1)C(=O)N([C@H](C)CO)C[C@H](C)[C@@H](CN(C)CC1CCCCC1)OCCCC[C@H](C)O2 | -1
2. C[C@H](CO)N1C[C@H](C)[C@@H](CN(C)Cc2ccc(-c3ccccc3)cc2)Oc2ccc(NS(=O)(=O)c3ccc(F)cc3)cc2C1=O | 1
3. C[C@@H]1CCCCO[C@@H](CN(C)S(=O)(=O)c2cccs2)[C@H](C)CN([C@@H](C)CO)C(=O)c2cc(NC(=O)NC3CCCCC3)ccc2O1 | -1
4. CS(=O)(=O)NC[C@@]12COC[C@H]1CN(C(=O)c1cnccn1)C2 | -1
5. COc1ccc(CN(C)C[C@H]2OCCCC[C@@H](C)Oc3ccc(NS(=O)(=O)c4c(C)noc4C)cc3C(=O)N([C@H](C)CO)C[C@H]2C)cc1 | -1
6. CN1CCN(C(=O)C[C@@H]2CC[C@@H]3[C@H](COC[C@H](O)CN3C(=O)Nc3cc(Cl)cc(Cl)c3)O2)CC1 | -1
7. COc1cccc(NC(=O)N(C)C[C@@H]2Oc3cc(C#Cc4ccncc4)ccc3S(=O)(=O)N([C@@H](C)CO)C[C@@H]2C)c1 | 1

###

Tested on: HepG2
Test: cytotoxicity call (relative viability < 0.9)
Conditions: 10 µM
Screen size: about 39,000 compounds; about 3,300 (8.5%) were called active. Shown is part of a subset that was picked to be rich in actives.
Classes used: t = active, f = inactive

1) CCCSc1nc(N[C@@H]2C[C@H]2c2ccc(F)c(F)c2)c2nnn([C@@H]3C[C@H](OCCO)[C@@H](O)[C@H]3O)c2n1 | f
2) C[C@H]1CN([C@@H](C)CO)C(=O)Cc2cc(NC(=O)Cc3ccccc3)ccc2O[C@H]1CN(C)S(C)(=O)=O | f
3) C[C@@H]1CCCCO[C@@H](CN(C)C(=O)Nc2ccc(C(F)(F)F)cc2)[C@@H](C)CN([C@H](C)CO)C(=O)c2cc(NC(=O)c3ccncc3)ccc2O1 | f
4) CC(=N)NCCCC[C@@H](N)C(=O)O | f
5) COc1ccc(NC(=O)N(C)C[C@H]2Oc3ccc(NS(C)(=O)=O)cc3CC(=O)N([C@@H](C)CO)C[C@H]2C)cc1 | f
6) OC[C@H]1O[C@H]([S][Au])[C@H](O)[C@@H](O)[C@@H]1O | t
7) OC[C@H]1O[C@@H](O)[C@H](O)[C@@H](O)[C@H]1O | f
8) C[C@@H]1CN([C@H](C)CO)C(=O)c2cccc(NC(=O)Nc3ccc(C(F)(F)F)cc3)c2O[C@H]1CN(C)Cc1ccccc1 | f
9) C[C@@H]1CCCCO[C@@H](CN(C)C(=O)Nc2ccc3c(c2)OCO3)[C@@H](C)CN([C@@H](C)CO)C(=O)c2cc(NC(=O)CCC(F)(F)F)ccc2O1 | f
10) CCn1nnc2c(SCC(N)=O)ncnc21 | f
11) COCC(=O)Nc1ccc2c(c1)OC[C@H](C)N(C(=O)Cc1cccnc1)C[C@H](C)[C@@H](OC)CN(C)C2=O | f
12) COc1ccc(S(=O)(=O)N(C)C[C@@H]2Oc3c(NS(=O)(=O)c4cn(C)cn4)cccc3C(=O)N([C@H](C)CO)C[C@H]2C)cc1 | f
13) COCC#Cc1cnc2c(c1)C(=O)N([C@@H](C)CO)C[C@H](C)[C@H](CN(C)C(C)=O)O2 | f
14) OC[C@H]1O[C@@H](O)[C@@H](O)[C@@H](O)[C@@H]1O | f
15) C[C@@H]1CN([C@H](C)CO)C(=O)CCCn2nncc2CO[C@@H]1CN(C)C(=O)CCCN(C)C | f
16) COc1ccc(CN(C)C[C@H]2OCCCC[C@H](C)Oc3ccc(NC(=O)NC(C)C)cc3C(=O)N([C@@H](C)CO)C[C@@H]2C)cc1 | f
17) CC(C)(C)[S@](=O)N1Cc2cc(C(=O)NCc3ccncc3)nc(-c3cccc(-c4ccc(C#N)cc4)c3)c2[C@@H]1CCO | f

###

Tested on: HepG2
Assay: cytotoxicity call (relative viability < 0.9)
Settings: 10 µM
Screen size: about 39,000 compounds; about 3,300 (8.5%) were called active. The list comes from a sample in which actives are over-represented; it also holds close analogues and randomly drawn compounds.
Classes used: True for active, False for inactive

1. C[C@@H]1CN([C@H](C)CO)C(=O)Cc2cc(NC(=O)Nc3ccc(C(F)(F)F)cc3)ccc2O[C@H]1CN(C)Cc1ccccc1 | True
2. C[C@@H]1CN([C@H](C)CO)C(=O)Cc2cc(NC(=O)Nc3ccc(C(F)(F)F)cc3)ccc2O[C@@H]1CN(C)Cc1ccccc1 | True
3. C[C@@H]1CN([C@@H](C)CO)C(=O)Cc2cc(NC(=O)Nc3ccc(C(F)(F)F)cc3)ccc2O[C@@H]1CN(C)Cc1ccccc1 | True
4. C[C@H]1CN([C@@H](C)CO)C(=O)Cc2cc(NC(=O)Nc3ccc(C(F)(F)F)cc3)ccc2O[C@@H]1CN(C)Cc1ccccc1 | False
5. C[C@@H]1CN([C@@H](C)CO)C(=O)Cc2cc(NC(=O)Nc3ccc(C(F)(F)F)cc3)ccc2O[C@H]1CN(C)Cc1ccccc1 | False
6. CNC[C@H]1Oc2ccc(NS(=O)(=O)c3cn(C)cn3)cc2C(=O)N([C@@H](C)CO)C[C@H]1C | False
7. C[C@H]1CN([C@@H](C)CO)S(=O)(=O)c2ccc(-c3ccncc3)cc2O[C@@H]1CN(C)Cc1ccc(Oc2ccccc2)cc1 | False

###

Test system: HepG2
Test: cytotoxicity call (relative viability < 0.9)
Conditions: 10 µM
In all, about 39,000 compounds went through this assay and about 3,300 (8.5%) were called active. Only a selection was taken, and actives are over-represented in it overall.
Classes used: active, inactive

1) CC(C)C(=O)[C@@H]1C(=O)O[C@@H](c2ccoc2)[C@]2(C)[C@H](O)[C@@H](O)[C@@]34O[C@]5(C)O[C@]3([C@H]12)[C@H](O)[C@@]1(O)[C@H](O)[C@]2(C)C[C@]1(O5)[C@@]4(C)[C@H]2CC(=O)O | active
2) CN1C(=O)c2cc(NC(=O)c3ccno3)ccc2OC[C@H]2O[C@@H](CC(=O)NC3Cc4ccccc4C3)CC[C@@H]21 | inactive
3) CO[C@H]1CN(C)C(=O)c2cc(NS(=O)(=O)CC(F)(F)F)ccc2OC[C@H](C)N(Cc2ccccn2)C[C@@H]1C | inactive
4) COc1ccc(S(=O)(=O)Nc2ccc3c(c2)C(=O)N([C@@H](C)CO)C[C@H](C)[C@H](CN(C)Cc2ccc4c(c2)OCO4)OCCCC[C@H](C)O3)cc1 | inactive
5) CC(C)C(O)=C1C(=O)OC(c2ccoc2)C2(C)C(O)C(O)C34OC5(C)OC3(C12)C(O)C1(O)C(O)C2(C)CC1(O5)C4(C)C2CC(=O)O (stereo not given) | inactive
6) O=C(O)[C@@H](O)c1ccccc1 | inactive
7) C[C@@H]1CCCCO[C@@H](CN(C)C(=O)Nc2ccc(F)cc2)[C@H](C)CN([C@H](C)CO)C(=O)c2cc(NC(=O)C3CCCCC3)ccc2O1 | inactive
8) COc1ccc(S(=O)(=O)N(C)C[C@H]2Oc3ccc(NC(=O)NC(C)C)cc3CC(=O)N([C@@H](C)CO)C[C@H]2C)cc1 | inactive
9) C[C@H](CO)N1C[C@H](C)[C@@H](CN(C)Cc2ccc(C(F)(F)F)cc2)Oc2ccc(NC(=O)Nc3cccc4ccccc34)cc2CC1=O | inactive
10) Cn1c(=O)c2c(nc(N3CCNCC3)n2CC(=O)c2ccc(Cl)cc2)n(C)c1=O | inactive
11) C[C@@H]1CN([C@@H](C)CO)S(=O)(=O)c2ccc(C#CC(C)(C)O)cc2O[C@H]1CN(C)Cc1ccccc1 | inactive
12) O=C([C@@H]1[C@@H](CO)[C@@H]2Cn3c(cccc3=O)[C@@H]2N1CC1CCCC1)N1CCOCC1 | inactive
13) CC(=O)Nc1cc(C(C)C)c(C(C)C)cc1C(C)C | inactive
14) C[C@H]1CN([C@@H](C)CO)C(=O)Cc2cc(NC(=O)Nc3cccc4ccccc34)ccc2O[C@H]1CN(C)Cc1ccc(C(F)(F)F)cc1 | active
15) C[C@@H]1CN([C@@H](C)CO)C(=O)Cc2cc(NC(=O)Nc3cccc4ccccc34)ccc2O[C@@H]1CN(C)Cc1ccc(C(F)(F)F)cc1 | active
